Tested on: carrageenin-induced hind paw edema
PROCEDURE TEXT: Anti-inflammatory activity (carrageenin-induced hind paw edema in rats)
Assay type: in vivo, Male Wistar rats
CONDITION INFO: Rattus norvegicus, po, 2 h; 1 mg/kg p.o., two hours; read-out: Inhibitory rate, two hours after the carrageenin injection
MEASURED METRIC: inhibition in vivo at 1 mg/kg (%)
Provide only the numeric value, understood in %.

Some solved cases for reference:
# inhibition in vivo at 1 mg/kg of CC(C(=O)O)c1ccc2c(c1)SCC1CCCCC1C2=O (stereo not shown) [H] = 31.4

Memo: CC(C(=O)O)c1ccc2c(c1)OCC1CCCCC1C2=O (stereo not shown) [A] , reported inhibition in vivo at 1 mg/kg: 34.3

Data point: CC(C(N)=O)c1ccc2c(c1)SCC1CCCCC1C2=O (single isomer, unassigned) [R] ; inhibition in vivo at 1 mg/kg = 29.3

Here is another compound to look at.
Briefly, inhibition in vivo at 1 mg/kg measured for O=C(O)Cc1ccc2c(c1)OCC1CCCCC1C2=O (stereo not shown) [B] : 17.8
